Where these numbers come from: patent US6288277A

Consider the following Ki values measured on LTB4-receptor (Homo sapiens).
Counter-ions that a name gives are not always drawn.
Outcome Measure: Ki (nM)

- CC(C)(c1ccc(O)cc1F)c1ccc(OCc2cccc(COc3ccc(CN)cc3)c2)cc1F: 10.6
- CC(C)(c1ccccc1)c1ccc(OCc2cccc(COc3ccc(CCN)cc3)c2)cc1 [hydrochloride]: 30.6
- NCc1ccc(OCc2cccc(COc3ccc(C(c4ccc(O)cc4)(C(F)(F)F)C(F)(F)F)cc3)c2)cc1: 21.8
- CC(CCC(=O)O)(c1ccc(O)cc1)c1ccc(OCc2cccc(COc3ccc(CN)cc3)c2)cc1 (stereo not drawn): 0.5
- NCc1ccc(OCc2cccc(COc3ccc(Oc4ccc(O)cc4)cc3)c2)cc1: 59.7
- CC(C)(c1ccc(OCc2cccc(COc3ccc(CN)cc3)c2)cc1)c1ccc(O[C@@H]2O[C@H](CO)[C@@H](O)[C@H](O)[C@H]2O)cc1: 0.55
- CC(C)(c1ccc(O)cc1)c1ccc(OCc2cccc(COc3ccc(CN)cc3)c2F)cc1: 27.9
- CC(C)(CN)c1ccc(OCc2cccc(COc3ccc(CN)cc3)c2)cc1: 67.3
- CC(C)(c1ccc(O)cc1)c1ccc(C(C)(C)c2ccc(OCc3cccc(COc4ccc(CN)cc4)c3)cc2)cc1: 50.8

---

Molecular target: LTB4-receptor (Homo sapiens, UniProt Q15722)
Sequence (Q15722 whole entry): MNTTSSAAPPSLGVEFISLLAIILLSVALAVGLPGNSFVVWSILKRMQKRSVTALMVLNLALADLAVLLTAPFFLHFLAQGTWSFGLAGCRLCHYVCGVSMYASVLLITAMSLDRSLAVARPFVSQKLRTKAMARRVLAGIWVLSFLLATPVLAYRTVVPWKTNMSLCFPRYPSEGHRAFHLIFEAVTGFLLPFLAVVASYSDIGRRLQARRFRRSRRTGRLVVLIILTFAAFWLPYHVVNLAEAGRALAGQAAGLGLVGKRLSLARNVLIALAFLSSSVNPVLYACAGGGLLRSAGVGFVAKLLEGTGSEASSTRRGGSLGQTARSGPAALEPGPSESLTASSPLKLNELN
pKi: −log10 of the molar value. Counter-ions that a name gives are not always drawn.
Outcome Measure: pKi

• NCc1ccc(OCc2cccc(COc3ccc([S+]([O-])c4ccc(O)cc4)cc3)c2)cc1 (stereo not shown) = 8.80
• CC(C)(C)Oc1ccc(OCc2cccc(COc3ccc(CN)cc3)c2)cc1 = 8.12
• CC(C)(c1ccccc1)c1ccc(OCc2cccc(COc3ccc(CN)cc3)c2)cc1 = 7.79
• CC(C)(c1ccc(O)cc1)c1ccc(OCc2cccc(COc3ccc(CN)cc3)c2)cc1 [hydrochloride] = 7.80
• CC(C)(c1ccccc1)c1ccc(O)c(OCc2cccc(COc3ccc(CN)cc3)c2)c1 = 7.66
• NCc1ccc(OCc2cccc(COc3ccc(C4(c5ccc(O)cc5)CCC4)cc3)c2)cc1 = 7.95
• NCc1ccc(OCc2cccc(COc3ccc(Cc4ccc(O)cc4)cc3)c2)cc1 = 7.41
